Each recorded value in this set is attributed to patent US7381824B2.

# test.system: human vascular endothelial growth factor receptor 2 (VEGF-R2) (Homo sapiens, UniProt P35968, DEL940-989/E990V)
# Construct: VEGF-R2D50 contains residues 806-939 and 990-1171; made in house; host or cells: baculovirus/insect cell system
# Sequence (P35968 with tags, fused parts or gaps DEL940-989/E990V limits assumed): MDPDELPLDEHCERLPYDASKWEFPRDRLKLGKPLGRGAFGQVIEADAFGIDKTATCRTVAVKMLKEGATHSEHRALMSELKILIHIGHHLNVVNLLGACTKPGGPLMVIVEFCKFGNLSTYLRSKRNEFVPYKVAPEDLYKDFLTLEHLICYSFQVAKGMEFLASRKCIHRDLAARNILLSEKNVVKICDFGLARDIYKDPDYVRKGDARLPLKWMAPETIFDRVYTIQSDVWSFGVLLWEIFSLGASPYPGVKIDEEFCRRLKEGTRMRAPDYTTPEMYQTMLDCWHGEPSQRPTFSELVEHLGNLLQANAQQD
# experiment.notes: VEGF-R2 coupled spectrophotometric assay (FLVK, unphosphorylated VEGF-R2D50)
# Type: biochemical
# run.conditions: unphosphorylated VEGF-R2D50 (FLVK)
So I've got a bunch of compounds here, and I need their Ki values.

State the recorded Ki for this entry: "Cc1oc2cc(Oc3ccnc4cc(OC(F)(F)F)ccc34)ccc2c1C(=O)NC1CC1" 1 to 10 nM

Proceed to "CNC(=O)c1c(C)sc2cc(Oc3ccnc4cc(-c5cccnc5)ccc34)ccc12" 1 to 10 nM

Proceed to "Cc1oc2cc(Oc3ccnc4cc(OCCNC5CC5)ccc34)ccc2c1C(=O)NC1CC1" < 1 nM

Proceed to "CNC(=O)c1c(C)sc2cc(Oc3ccnc4cc(-c5ccncc5)ccc34)ccc12" 1 to 10 nM

Proceed to "CNC(=O)c1c(C)n(C)c2cc(Oc3ccnc4cc(OCCN5CCCC5)ccc34)ccc12" > 10 nM

Proceed to "CNC(=O)c1c(C)oc2cc(Oc3ccnc4cc(I)ccc34)ccc12" 1 to 10 nM

Proceed to "COc1ccc2c(Oc3ccc4c(C(=O)NC(C)C)c(C)sc4c3)ccnc2c1" 1 to 10 nM

Proceed to "CNC(=O)c1c(C)oc2cc(Oc3ccnc4cc(OCC5OCCO5)ccc34)ccc12" < 1 nM

Proceed to "CNC(=O)c1c(C)sc2cc(Oc3ccnc4cc(-c5ncccn5)ccc34)ccc12" > 10 nM

Proceed to "Cc1oc2cc(Oc3ccnc4cc(OCCNC(C)(C)C)ccc34)ccc2c1C(=O)NC1CC1" < 1 nM

Proceed to "CNC(=O)c1c(C)n(C)c2cc(Oc3ccnc4cc(OCCN5CCOCC5)ccc34)ccc12" > 10 nM

Proceed to "Cc1sc2cc(Oc3ccnc4cc(O)ccc34)ccc2c1C(=O)NCCN(C)C" > 10 nM

Proceed to "CCN(CC)CCOc1ccc2c(Oc3ccc4c(C(=O)NC5CC5)c(C)oc4c3)ccnc2c1" < 1 nM

Proceed to "COc1ccc2c(Oc3ccc4c(C(=O)NCCCO)c(C)oc4c3)ccnc2c1" 1 to 10 nM

Proceed to COc1ccc2c(Oc3ccc4c(C(=O)NCC(C)O)c(C)sc4c3)ccnc2c1 (centres unmarked) > 10 nM

Proceed to "CNC(=O)c1c(C)oc2cc(Oc3ccnc4cc(C(F)(F)F)ccc34)ccc12" > 10 nM

Proceed to "COc1ccc2c(Oc3ccc4c(C(=O)NCc5cccnc5)c(C)sc4c3)ccnc2c1" > 10 nM

----------
# test.system: human vascular endothelial growth factor receptor 2 (VEGF-R2) (Homo sapiens, UniProt P35968, DEL940-989/E990V)
# Construct: VEGF-R2D50 contains residues 806-939 and 990-1171; made in house; host or cells: baculovirus/insect cell system
# experiment.notes: VEGF-R2 coupled spectrophotometric assay (FLVK, unphosphorylated VEGF-R2D50)
# Assay type: biochemical
# run.conditions: unphosphorylated VEGF-R2D50 (FLVK)
So I've got a bunch of molecules here, and I need their Ki values.

State the recorded Ki for this entry: "CNC(=O)c1c(C)n(C)c2cc(Oc3ccnc4cc(OC)ccc34)ccc12" > 10 nM

Proceed to "CNC(=O)n1c(C)cc2cc(Nc3ccnc4cc(-c5cccnc5)ccc34)ccc21" > 10 nM

Proceed to "Cc1sc2cc(Oc3ccnc4cc(O)ccc34)ccc2c1C(=O)NC1CCCC1" > 10 nM

Proceed to "CNC(=O)c1c(C)oc2cc(Oc3ccnc4cc(-c5cccnc5)ccc34)ccc12" < 1 nM

Proceed to "CNC(=O)c1c(C)sc2cc(Oc3ccnc4cc(Br)ccc34)ccc12" > 10 nM

Proceed to "COc1ccc2c(Oc3ccc4c(C(=O)NC[C@H]5CCCO5)c(C)oc4c3)ccnc2c1" 1 to 10 nM

Proceed to CCC(O)CNC(=O)c1c(C)sc2cc(Oc3ccnc4cc(OC)ccc34)ccc12 (centres unmarked) > 10 nM

Proceed to "CCCCNC(=O)c1c(C)oc2cc(Oc3ccnc4cc(OCCN5CCCCC5)ccc34)ccc12" 1 to 10 nM

Proceed to "CCN1CCN(CCOc2ccc3c(Oc4ccc5c(C(=O)NC6CC6)c(C)oc5c4)ccnc3c2)CC1" < 1 nM

Proceed to "CCCCNC(=O)c1c(C)oc2cc(Oc3ccnc4cc(OCCN5CCOCC5)ccc34)ccc12" 1 to 10 nM

Proceed to "CNC(=O)c1c(C)oc2cc(Oc3ccnc4ccc(-c5ccncc5)cc34)ccc12" 1 to 10 nM

Proceed to "CCCNC(=O)c1c(C)sc2cc(Oc3ccnc4cc(O)ccc34)ccc12" > 10 nM

Proceed to "COc1ccc2c(Oc3ccc4c(C(=O)NCc5ccccn5)c(C)oc4c3)ccnc2c1" > 10 nM

Proceed to "CNC(=O)c1c(C)oc2cc(Oc3ccnc4cc(OCCN5CCCCC5)ccc34)ccc12" 1 to 10 nM
